- Tested on: MDA-MB-468 breast
- test.summary: NCI-60 one-dose screen, 48 h (100 = growth as untreated, 0 = no growth, -100 = all killed)
- setup.conditions: 10 µM unless noted
The panel holds about 83,000 compounds, 20% with a hit somewhere; the sample as a whole holds those more often.
assay.readout: growth (%)

>>> df
                                   compound  reported_result
0  O=c1[nH]nc(-c2ccc(Br)cc2)c2sc(NC(=S)Nc3ccc(Cl)cc3)nc12              110
1                OC(COCc1ccccc1)COCc1ccccc1              108
2  COC(=O)C1=Nc2ccc(F)cc2/C1=C/c1sc(=S)[nH]c1O             13.4
3  COCCn1cc(-c2nc(-c3cccnc3)cs2)c2cc(F)ccc21              100
4  COc1c(C2CC(=O)Nc3c2cnn3Cc2ccco2)cc2c(c1OC)OCO2 (stereo unspecified)             16.2
5  COc1cc(/C=C2\C=C(c3ccccc3)N(CCc3ccccc3)C2=O)cc(OC)c1OC             89.2

###

- System: MDA-MB-468 breast
- test.summary: NCI-60 one-dose screen, 48 h (100 = growth as untreated, 0 = no growth, -100 = all killed)
- setup.conditions: 10 µM unless noted
Compounds without any hit were thinned out: in the full panel of roughly 83,000, 20% have a hit.
assay.readout: growth (%)

>>> print(df.to_string())
                                    compound  assay_readout  uom  reported_result
 0  CNCc1cccc2c1OCCOCCOCCC(C)S(=O)(=O)c1ccc(cc1)-c1cnc(N)c(n1)C(=O)N2 (centres undefined)         growth    %             53.1
 1  O=C(/C=C/c1ccc(Cl)cc1)/C=C/c1cc2ccccc2[nH]c1=O         growth    %             55.9
 2  COc1cccc(NC(=O)Cn2cc3c(=O)oc4ccccc4c3n2)c1         growth    %              101
 3                      Cc1c(O)nc(N)[nH]c1=O         growth    %              105
 4  O=C(Nc1ccc(-c2nc(-c3cccc(O)c3)c(-c3ccnc(Br)c3)[nH]2)cc1)c1ccccc1         growth    %             7.45
 5     NCCNc1nc2ccccc2c2c(=O)c3cc(F)ccc3sc12         growth    %             67.2
 6  COc1cc(/C=C\c2cc(OC)c(OC)c(OC)c2)cc(NC(=O)/C=C/c2cc(OC)c(OC)c(OC)c2)c1OC         growth    %               36
 7  COc1ccc(OC)c([N+](=O)[O-])c1C(=O)CNC(C)=O         growth    %               98
 8  N#CN1CC[C@H](C(=O)Nc2cc3cc(C(N)=O)ccc3cn2)C1         growth    %            -46.2
 9                 CCOC(=O)/C=C\C(=O)NC(N)=O         growth    %             88.6
10  Cc1cc(N(CCCNc2ccnc3cc(Cl)ccc23)Cc2ccc3c(c2)OCO3)nc(N2CCCCC2)n1         growth    %            -45.2
11          CCN(CC)CCNC(=O)c1ccc(NC(C)=O)cc1         growth    %              111
12  CN1CCN(Cc2ccc(NC(=O)c3cncc(C#Cc4cnc(N)c5cnccc45)c3)cc2C(F)(F)F)CC1         growth    %             6.98
13    Nc1c(C(=O)Nc2cccc(Cl)c2)sc2ncc(Cl)cc12         growth    %             95.3

###

- Test system: MDA-MB-468 breast
- test.summary: NCI-60 one-dose screen, 48 h (100 = growth as untreated, 0 = no growth, -100 = all killed)
- setup.conditions: 10 µM unless noted
This is part of a sample that, as a whole, favours compounds with a hit. Of some 83,000 tested, about 20% had one in any assay. The source made the active and inactive calls. The calls were made as follows: active = growth percent below 10; inactive = the rest.
assay.readout: growth

compound	reported.result
O=c1cc(-c2ccccc2)[nH]c2ncc(-c3ccc(F)cc3)n12	83% (inactive)
CO[C@H]1C[C@@H]2CC[C@@H](C)[C@@](O)(O2)C(=O)C(=O)N2CCCC[C@H]2C(=O)O[C@H]([C@H](C)C[C@@H]2CC[C@@H](OCCO)[C@H](OC)C2)CC(=O)[C@H](C)/C=C(\C)[C@@H](O)[C@H](OC)C(=O)[C@H](C)C[C@H](C)\C=C/C=C/C=C/1C	26.9% (inactive)
COC(=O)CCCCCCN=Cc1c(O)c(O)c(C(C)C)c2cc(C)c(-c3c(C)cc4c(C(C)C)c(O)c(O)c(C=NCCCCCCC(=O)OC)c4c3O)c(O)c12	47.1% (inactive)
S=C=Nc1ccc2ccccc2c1	97.3% (inactive)
Cc1[nH]c(C(=O)Nc2ccc(C(=O)N3CCNCC3)cc2OC(C)C)c(Cl)c1Cl	64.8% (inactive)
CC(NC(=O)Oc1cccc2ccccc12)c1ccccc1 (stereo unspecified)	107% (inactive)

###

- Tested on: MDA-MB-468 breast
- test.summary: NCI-60 one-dose screen, 48 h
- setup.conditions: 10 µM unless noted
The panel holds about 83,000 compounds, 20% with a hit somewhere; the sample as a whole holds those more often. The source made the active and inactive calls. The calls were made as follows: active = growth percent below 10; inactive = the rest.
Outcome codes: active, inactive

                            compound_string  group_label
0  O=C1C(Cl)=C(Nc2ccc3cn[nH]c3c2)C(=O)c2ccccc21       active
1  C=C(C)[C@@H]1CC[C@]2(C(=O)N3CCCNCC3)CC[C@]3(C)[C@H](CC[C@@H]4[C@@]5(C)CCC(=O)C(C)(C)[C@@H]5CC[C@]43C)[C@@H]12     inactive
2  O=c1c2cc(F)ccc2sc2c(NCCN3CCOCC3)nc3ccccc3c12     inactive

###

- System: MDA-MB-468 breast
- test.summary: NCI-60 one-dose screen, 48 h
- setup.conditions: 10 µM unless noted
About 83,000 compounds went through this panel and 20% of them were active in at least one assay; those are over-represented in the sample as a whole. The source made the active and inactive calls. The calls were made as follows: active = growth percent below 10; inactive = the rest.
Outcome codes: active, inactive

>>> print(df.to_string())
                                   compound  group_label
0  C/C(=C\CCc1ccoc1)CC/C=C(\C)CCCC1COC(=O)C1 (stereo not given)     inactive
1  COc1cc(C2C3=C(COC3=O)N(CCO)c3cc4c(cc32)OCO4)cc(OC)c1OC (stereo not given)       active
2  CC(Cc1cccc(C(F)(F)F)c1)NCCOC(=O)c1ccccc1 (stereo not given)     inactive
3      CCN(CCNc1cc(OC)cc2cccnc12)CCc1ccccc1       active
4  CC1(C)/C(=C\CO)C2CCC1C2 (stereo not given)     inactive

###

- Test system: MDA-MB-468 breast
- test.summary: NCI-60 one-dose screen, 48 h (100 = growth as untreated, 0 = no growth, -100 = all killed)
- setup.conditions: 10 µM unless noted
The panel holds about 83,000 compounds, 20% with a hit somewhere; the sample as a whole holds those more often.
assay.readout: growth (%)

>>> print(df.to_string())
                                    compound        test_target  assay_readout  uom  reported_result
 0  CC(C)OP(=O)(CCC(=O)c1c[nH]c2ccccc12)OC(C)C  MDA-MB-468 breast         growth    %              107
 1  CCCc1nn2c(CCC(=O)c3nc4ccc([N+](=O)[O-])cc4[nH]3)nnc2s1  MDA-MB-468 breast         growth    %              114
 2  COc1ccc(-c2cc(-c3c(C)oc4cc5occc5c(OC)c4c3=O)nc(N)c2C#N)cc1OC  MDA-MB-468 breast         growth    %             76.2
 3  c1cn2cc(-c3ccc4cn[nH]c4c3)nc(Nc3ccc(N4CCOCC4)cc3)c2n1  MDA-MB-468 breast         growth    %             61.8
 4  CCOc1nc(-c2ccccc2)cc2c(O)c(C(=O)NC(C)C)[nH]c(=O)c12  MDA-MB-468 breast         growth    %              101
 5  Nc1nc2c3ccncc3cc(-c3cccc(Cl)c3)c2c2cnccc12  MDA-MB-468 breast         growth    %             36.6
 6  Cc1ccc(CCC(=O)Nc2ncc(Cc3cc(Cl)ccc3Cl)s2)o1  MDA-MB-468 breast         growth    %             7.55
 7                   NNC(=O)c1nc2ccccc2[nH]1  MDA-MB-468 breast         growth    %              126
 8               CCCCN(CCCC)c1ccc(C(=O)O)cc1  MDA-MB-468 breast         growth    %              101
 9  COc1ccc(N=Cc2c(O)ccc3c2oc2cc(Cl)c(O)c(Cl)c23)cc1  MDA-MB-468 breast         growth    %             72.5
10  COc1ccccc1/C=C1\Oc2cc(OCCN3CCCC3)ccc2C1=O  MDA-MB-468 breast         growth    %             56.3
11  Cc1cc(S(=O)(=O)N(C)C)cc(NCC(=O)NC(=O)NCC(C)C)c1C  MDA-MB-468 breast         growth    %              104
12      CC(c1ccccc1)N(C)C (stereo not given)  MDA-MB-468 breast         growth    %               86
13  CCOC(=O)/C=c1\sc2n(c1=O)C1C(NN=2)N(CC)C(=O)N1CC (stereo not given)  MDA-MB-468 breast         growth    %             48.4
14  O=C(c1ccccc1)C(CN1CCOCC1)c1ccccc1 (stereo not given)  MDA-MB-468 breast         growth    %            -68.7
